Target: T1, Fas ligand (human, UniProt P48023 134-281, limits assumed)
T1 sequence (looked up): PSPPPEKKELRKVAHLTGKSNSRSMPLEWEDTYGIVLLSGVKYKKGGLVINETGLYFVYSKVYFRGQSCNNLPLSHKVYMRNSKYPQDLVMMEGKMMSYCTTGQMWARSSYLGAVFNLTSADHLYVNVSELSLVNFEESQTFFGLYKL
Experiment: phage ELISA
measuredQuantity: binding result

Solved cases (8 shown):
binder="I003F12S (scFv) scFv: QVQLLQSAAELKKPGQSLKISCKGSGFTFTTYWIGWVRQLPGKGLEWMGIIYPGDSHTTYSPSFEGHVNISVDKSINTAYLQWSSLKASDTAMYYCARHDDDVLTGYYFESWGQGTMVTVSSGGGGSGGGGSGGGGSQSVLTQPASVSGSPGQSITISCTGTSSDVGGYNYVSWYQQHPGKAPKLMIYEGSKRPSGVSNRFSGSKSGNTASLTISGLQAEDEADYYCSSYTTRSTRVFGGGTKLTVLG" measuredquantity="binding result" result="no binding"
binder="I006D08 (scFv) scFv: QVQLQQSGAEVKKPGSSVRVSCKASGGTFNNNAINWVRQAPGQGLEWMGGIIPMFGTAKYSQNFQGRVAITADESTSTASMELSSLRSEDTAVYYCARSRDLLLFPHYGMDVWGRGTMVTVSSGGGGSGGGGSGGGGSAFSSELTQDPAVSVALGQTVRVTCQGDSLRSYYASWYQQKPGQAPVLVIYGKNNRPSGIPDRFSGSSSGNTASLTITGAQAEDEADYYCNSRDSSGNHWVFGGGTELTVLG" measuredquantity="binding result" result="no binding"
binder="I031G10 (scFv) scFv: QVQLVQSGAEVKKPGSSVKVSCRVSGGSFTDDSINWLRQAPGQGLEWVGGTIPLANRANYAQKFRDRVTITADELTATVFLELTSLRSDDTALYYCARSSPPKWYDALTGDSSYHSAMDVWGRGTLVTVSSGGGGSGGGGSGGGGSAQSVVTQPPSVSAAPGQKVTISCSGSTSNIGRNYVSWYQQLPGTATKLLIYDNNKRPSGIPDRFSGSKSGTSATLGITGLQTGDEADYYCGTWDSSLRIYVFGTGTKVTVLG" measuredquantity="binding result" result="no binding"
binder="I050A12 (scFv) scFv: EVQLVQSGAEVKKPGSSVKVSCKASGDTFSHYAINWVRQAPGQGLEWMGGIIPTFNAVKYAQKFQGRATITADGSTSTAYMELNSLRSEDTAVYYCATAPYDLLTHYFHYFDYWGQGTMVTVSSGGGGSGGGGSGGGGSALSSELTQDPAVSVTLGQTVRITCQGDSLRSYYPSWYQQKPGQAPVLVIYPKNIRPSGIPDRFSGSSSGNTASLTITGAQAEDEADYYCNSRASSGNHYVFATGTKLTVLG" measuredquantity="binding result" result="no binding"
binder="I018H09 (scFv) scFv: QVQLQQSGAEVKKPGASVKVSCKASGYTFTKYTMHWVRQAPGQGPEWMGWINGGSGDTKYSRKFQGRVTITKDTSASATYMELSSLGSEDTALYYCARATYDPLTGYSFDGFDIWGKGTMVTVSSGGGGSGGGGSGGGGSQSVLTQPASVSGSPGQSITISCTGTSSDVGGYNYVSWYQQHPGKAPKLMIYEGSKRPSGVSNRFSGSKSGNTASLTISGLQAEDEADYYCSSYTTRSTRVFGGGTKLTVLG" measuredquantity="binding result" result="no binding"
binder="I029D07 (scFv) scFv: QVQLQQSGAEVKKPGSSVKVSCKASGYTFTKYTMHWVRQAPGQGPEWMGWINGGSGDTKYSRKFQGRVTITKDTSASAAYMELSSLGSEDTALYYCARATYDPLTGYSFDGFDIWGQGTLVTVSSGGGGSGGGGSGGGGSQSVLTQPASVSGSPGQSITISCTGTSSDVGGYNYVSWYQQHPGKAPKLMIYDVSKRPSGVPDRFSGSKSGNTASLTISGLQAEDEGDYYCSSYAGPSRVFGGGTKVEIKR" measuredquantity="binding result" result="no binding"
binder="I016F04 (scFv) scFv: QVQLQQSGSELKKPGASVKVSCKVSGYSLTKMSMHWVRQSPGEGLEWVGGIDPETRQPVYAQKFQGRVTITKDTSASAAYMELSSLGSEDTALYYCARATYDPLTGYSFDGFDIWGQGTLVTVSSGGGGSGGGGSGGGGSQSVLTQPASVSGSPGQSITISCTGTSSDVGGYNYVSWYQQHPGKAPKLMIYEGSKRPSGVSNRFSGSKSGNTASLTISGLQAEDEADYYCSSYTTRSTRVFGGGTKLTVLG" measuredquantity="binding result" result="no binding"
binder="I016E05 (scFv) scFv: QVQLQQSGAEVKKPGASVKVSCKASGYTFTKYTMHWVRQAPGQGPEWMGWINGGSGDTKYSRKFQGRVTITKDTSASAAYMELSSLGSEDTALYYCARATYDPLTGYSFDGFDIWGKGTMVTVSSGGGGSGGGGSGGGGSQSALTQPASVSGSPGQSITISCTGTSSDVGGYNYVSWYQQHPGKAPKLMIYEGSKRPSGVSNRFSGSKSGNTASLTISGLQAEDEADYYCSSYTTRSTRVFGGGTKLTVLG" measuredquantity="binding result" result="no binding"

Lookup: // binding result lookup, key: I061E07 (scFv) scFv: QVQLQQSGAEVKKTGASVKVSCKASGYIFADYYVHWVRQAAGQGLEWMGWINPNTGSTKYAQKFQDRVTMTRDTSIKTVYMELRRLRSDDTALYYCARATYDPLTGYSFDGFDIWGKGTMVTVSSGGGGSGGGGSGGGGSQSVLTQPPSASGTPGQRVTISCSGSSSNIGSNTVNWYQRLPGAAPQLLIYNNDQRPSGIPDRFSGSKSGTSGSLVISGLQSEDEADYYCASWDDSLNGRVFGGGTKLTVLG
Found: no binding
